Target: T1, human ST2L extracellular domain with C-terminal His6 tag (human, UniProt Q01638 19-328)
T1 construct: also called huST2L-ECD; ST2L-ECD
T1 sequence: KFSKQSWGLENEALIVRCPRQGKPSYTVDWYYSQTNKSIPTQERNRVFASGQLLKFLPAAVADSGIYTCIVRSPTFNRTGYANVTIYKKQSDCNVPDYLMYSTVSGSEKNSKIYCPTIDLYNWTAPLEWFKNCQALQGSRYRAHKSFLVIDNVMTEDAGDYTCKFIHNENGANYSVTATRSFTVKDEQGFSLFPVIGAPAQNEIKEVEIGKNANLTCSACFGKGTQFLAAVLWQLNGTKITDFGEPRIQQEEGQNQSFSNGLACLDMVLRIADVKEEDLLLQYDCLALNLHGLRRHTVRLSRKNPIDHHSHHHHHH
Assay: SPR, mAb captured, ST2L-ECD in solution
quantity.measured: kon (M⁻¹ s⁻¹)
Dear colleague, please return just the value in M⁻¹ s⁻¹, with no unit written.

>>> result_number("STLM103 (antibody, V domains shown, frameworks VH3-23 / Vk-L6) VH: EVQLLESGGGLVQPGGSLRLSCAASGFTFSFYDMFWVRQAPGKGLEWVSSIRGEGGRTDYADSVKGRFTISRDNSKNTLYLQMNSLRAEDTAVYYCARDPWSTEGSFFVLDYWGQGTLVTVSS VL: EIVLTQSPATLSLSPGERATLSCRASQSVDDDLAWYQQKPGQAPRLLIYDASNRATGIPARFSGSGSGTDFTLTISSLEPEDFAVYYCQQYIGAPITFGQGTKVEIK")
"3.97e+06"

Inquiry: Report measured kon; entry is STLM230 (antibody, V domains shown, VH STLH201 + VL STLL274) VH: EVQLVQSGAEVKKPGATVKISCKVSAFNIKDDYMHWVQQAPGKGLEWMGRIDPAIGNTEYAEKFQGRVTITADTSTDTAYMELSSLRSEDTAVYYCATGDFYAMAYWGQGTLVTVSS VL: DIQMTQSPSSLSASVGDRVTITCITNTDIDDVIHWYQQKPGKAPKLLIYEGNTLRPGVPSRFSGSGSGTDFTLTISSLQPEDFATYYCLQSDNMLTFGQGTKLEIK
Reply text: 1.11e+07

Inquiry: Using known records, supply kon for STLM216 (antibody, V domains shown, frameworks VH3-23 / Vk-L6) VH: EVQLLESGGGLVQPGGSLRLSCAASGFTFSSYDMFWVRQAPGKGLEWVSDIKGEGGATNYADSVKGRFTISRDNSKNTLYLQMNSLRAEDTAVYYCARDPWSTEGSFFVLDYWGQGTLVTVSS VL: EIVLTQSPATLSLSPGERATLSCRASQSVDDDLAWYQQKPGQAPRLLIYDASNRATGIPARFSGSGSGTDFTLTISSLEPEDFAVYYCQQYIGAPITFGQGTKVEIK
Reply text: 9.63e+06
